# Target or test system: Bcl-2-like protein 1 (Homo sapiens) (UniProt Q07817)
# Sequence (Q07817 whole entry, looked up): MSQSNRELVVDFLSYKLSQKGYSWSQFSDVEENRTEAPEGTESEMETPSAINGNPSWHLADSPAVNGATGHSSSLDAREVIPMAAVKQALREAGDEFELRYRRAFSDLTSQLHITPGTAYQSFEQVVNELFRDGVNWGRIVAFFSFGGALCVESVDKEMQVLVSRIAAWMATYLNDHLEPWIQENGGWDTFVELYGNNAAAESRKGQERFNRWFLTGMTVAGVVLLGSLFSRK
# Assay method text: Bcl-xL/Bim BH3 interaction blockers – biochemical, fluorescence polarization, HTS, primary screen (AID 2129);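 note: 0% = DMSO wells and 100% = unlabeled Bim-BH3 peptide competitor; inhibitors lower millipolarization by displacing the labeled peptide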
# Condition details: GST-Bcl-xL / FITC-Bim BH3 peptide fluorescence polarization; at 10.9 µM
In all, about 320,000 compounds went through this assay and about 2,200 (0.69%) were called active.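 Rule for the calls: active = inhibition above the mean of all tested compounds plus 3 SD, cutoff set per campaign (cut at about 30% in these data); inactive = the rest.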 Shown is part of a subset that was picked to be rich in actives.
Outcomes: 1.0 = active, 0.0 = inactive

Compound	Target or test system	Class label
O=C(NCc1cc(C(F)(F)F)cc(C(F)(F)F)c1)C1CC(c2cccc(F)c2)=NO1 (centres undefined)	Bcl-2-like protein 1 (Homo sapiens) (UniProt Q07817)	0.0
COc1ccc(CNC(=O)C(C)NCc2ccccc2Cl)cc1 (centres undefined)	Bcl-2-like protein 1 (Homo sapiens) (UniProt Q07817)	0.0
CCOc1ccc2[nH]c(=O)c(CN(Cc3nnnn3CCc3ccccc3)CC3CCCO3)cc2c1 (centres undefined)	Bcl-2-like protein 1 (Homo sapiens) (UniProt Q07817)	0.0
Cc1cccn2c(=O)c3cc(C(=O)NCCN4CCOCC4)c(=N)n(Cc4cccnc4)c3nc12	Bcl-2-like protein 1 (Homo sapiens) (UniProt Q07817)	1.0
CC(=O)N1c2ccc(S(=O)(=O)N3CCC(C(=O)NC4CCCC(C)C4C)CC3)cc2CC1C (centres undefined)	Bcl-2-like protein 1 (Homo sapiens) (UniProt Q07817)	0.0
CCOc1ccc(C2=CC(c3ccccc3)n3ncnc3N2)cc1 (centres undefined)	Bcl-2-like protein 1 (Homo sapiens) (UniProt Q07817)	0.0
CC[C@]1(O)C[C@@H]2CN(CCc3c([nH]c4ccccc34)[C@@](C(=O)OC)(c3cc4c(cc3OC)N(C)[C@H]3[C@@](O)(C(=O)OC)[C@H](OC(C)=O)[C@]5(CC)C=CCN6CC[C@]43[C@@H]65)C2)C1	Bcl-2-like protein 1 (Homo sapiens) (UniProt Q07817)	1.0
CC1=C(C(=O)OCc2ccccc2)C(c2ccco2)n2ncnc2N1 (centres undefined)	Bcl-2-like protein 1 (Homo sapiens) (UniProt Q07817)	0.0
CC[N+](C)(CC)CCC[n+]1c(-c2ccccc2)c2cc(N)ccc2c2ccc(N)cc21	Bcl-2-like protein 1 (Homo sapiens) (UniProt Q07817)	1.0

###

Below, each entry is listed alongside its reported inhibition.
# Target or test system: Bcl-2-like protein 1 (Homo sapiens)
# Assay method text: Bcl-xL/Bim BH3 interaction blockers – biochemical, fluorescence polarization, HTS, primary screen (AID 2129)
# Condition details: GST-Bcl-xL / FITC-Bim BH3 peptide fluorescence polarization; at 10.9 µM; active compounds read high
Out of some 320,000 compounds screened, about 2,200 (0.69%) were called active. Only a selection was taken, and actives are over-represented in it overall.
Value kind: inhibition (%)

In [3]: df
Out[3]:
                                   compound                target_or_test_system  readout_value
0   CCOC(=O)c1c(NC(=O)/C=C/c2ccco2)sc(C)c1C  Bcl-2-like protein 1 (Homo sapiens)           0.59
1  COc1cccc(-c2nc(CS(=O)CC(=O)NCc3ccc(F)cc3)c(C)o2)c1 (stereo not given)  Bcl-2-like protein 1 (Homo sapiens)           7.05
2  Cc1nn2c(c1-c1ccccc1)N=C(c1ccco1)CC2c1ccccc1 (stereo not given)  Bcl-2-like protein 1 (Homo sapiens)           3.95
3  O=C(C1CCN(S(=O)(=O)c2ccc(Br)s2)CC1)N1CCN(C2CCCCC2)CC1  Bcl-2-like protein 1 (Homo sapiens)           3.57
4  CCC(C)NC(=O)/C=C/c1ccc(S(=O)(=O)NCc2ccco2)cc1 (stereo not given)  Bcl-2-like protein 1 (Homo sapiens)           3.42

###

# Target or test system: Bcl-2-like protein 1 (Homo sapiens) (UniProt Q07817)
# Assay method text: Bcl-xL/Bim BH3 interaction blockers – biochemical, fluorescence polarization, HTS, primary screen (AID 2129);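 note: 0% = DMSO wells and 100% = unlabeled Bim-BH3 peptide competitor; inhibitors lower millipolarization by displacing the labeled peptide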
# Condition details: GST-Bcl-xL / FITC-Bim BH3 peptide fluorescence polarization; at 10.9 µM
The campaign covered roughly 320,000 compounds. About 2,200 (0.69%) were called active.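 The calls were made as follows: active = inhibition above the mean of all tested compounds plus 3 SD, cutoff set per campaign (cut at about 30% in these data); inactive = the rest.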 The sample holds actives, similar compounds and a random draw of the others, so the mix is not that of the screen.
Outcomes: active, inactive

>>> print(df.to_string())
                                   compound  class_label
0  COc1ccc(C(=O)N(Cc2ccccc2)c2ccc(C)cc2)cc1S(=O)(=O)N1CCOCC1     inactive
1  O=C(CSc1n[nH]c(-c2cccnc2)n1)Nc1ccc(Cl)cc1     inactive
2  CCCCC1=CC2=CC(=O)C(C)(OC(=O)CC)C(=O)C2=CN1CCCOC(C)C (stereo not given)     inactive
3  CC1CC(C)CN(S(=O)(=O)c2cccc3nonc23)C1 (stereo not given)     inactive
4  CC(C)c1ccc(NC(=S)NNc2ccc(Cl)c(C(=O)O)c2)cc1       active
5  O=C(Nc1ccccc1N1CCCC1)c1ccc(F)c(S(=O)(=O)N2CCOCC2)c1     inactive
6  COc1ccc(-n2ncc3c2CC(C)(C)CC3NC(=O)CCc2c(C)nn(C)c2C)cc1 (stereo not given)     inactive
7  O=C(NCCSCc1ccccc1)c1ccc(Cl)c(S(=O)(=O)N2CCOCC2)c1     inactive
8  COC/C=C/C1=CC2=CC(=O)C(C)(OC(=O)CCC(=O)OC)C(=O)C2=CO1 (stereo not given)       active
9  O=C(c1ccc(F)c(S(=O)(=O)N2CCOCC2)c1)N(CCc1ccccc1)Cc1ccccc1       active

###

# Target or test system: Bcl-2-like protein 1 (Homo sapiens)
# Assay method text: Bcl-xL/Bim BH3 interaction blockers – biochemical, fluorescence polarization, HTS, primary screen (AID 2129);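 note: 0% = DMSO wells and 100% = unlabeled Bim-BH3 peptide competitor; inhibitors lower millipolarization by displacing the labeled peptide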
# Condition details: GST-Bcl-xL / FITC-Bim BH3 peptide fluorescence polarization; at 10.9 µM; active compounds read high
Out of some 320,000 compounds screened, about 2,200 (0.69%) were called active. This is one part of a sample in which actives are shown more often than they occur.
Value kind: inhibition (%)

>>> print(df.to_string())
                                   molecule  readout_value
0         Fc1ccccc1/C=N/Nc1cc(N2CCCCC2)ncn1           1.94
1  CC(=O)C1=C(C)NC(C)=C(C(C)=O)C1c1cn(-c2ccccc2)nc1-c1cccs1          -1.97
2  COc1ccc(S(=O)(=O)N(C)CC(=O)NCCCN2CCOCC2)cc1Cl          -0.96
3  C=CCn1c(SCCOc2ccc(OC)cc2)nnc1C(NC(=O)c1ccc(OC)cc1)C(C)C (stereo not given)           4.55
4  CCCOc1ccc(C2c3c(oc4cc(C)c(C)cc4c3=O)C(=O)N2CCCN2CCOCC2)cc1 (stereo not given)           11.6

###

Below, each entry is listed alongside its reported inhibition.
# Target or test system: Bcl-2-like protein 1 (Homo sapiens) (UniProt Q07817)
# Assay method text: Bcl-xL/Bim BH3 interaction blockers – biochemical, fluorescence polarization, HTS, primary screen (AID 2129);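 note: 0% = DMSO wells and 100% = unlabeled Bim-BH3 peptide competitor; inhibitors lower millipolarization by displacing the labeled peptide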
# Condition details: GST-Bcl-xL / FITC-Bim BH3 peptide fluorescence polarization; at 10.9 µM; active compounds read high
The campaign covered roughly 320,000 compounds. About 2,200 (0.69%) were called active. What follows is part of a selection rich in actives, with near analogues and random picks from the rest.
Value kind: inhibition (%)

>>> print(df.to_string())
                                   compound  readout_value
0  CCNC(=O)Nc1ccc(S(=O)(=O)Nc2cnc(C)nc2C)cc1           0.51
1  COc1ccc2cc1Oc1ccc(cc1)C[C@H]1c3cc(c(OC)cc3CCN1C)Oc1c(O)c(OC)cc3c1[C@H](C2)N(C)CC3           6.82
2  Cc1ccc2nc(N3C(=O)C(O)=C(C(=O)c4ccco4)C3c3cccc(O)c3)sc2c1 (stereo not given)            2.1
3  Cc1[nH]c2ccccc2c1CCN(Cc1cccs1)C(=S)NC(C)(C)C           3.98
4  Cc1ccc(Cc2cnc(NC(=O)/C(C#N)=C/c3ccc(-c4cccc([N+](=O)[O-])c4)o3)s2)cc1           1.29
5  Cc1noc(C)c1C(=O)NCC1COc2ccccc2O1 (stereo not given)          -7.18
6  COc1cccc(NC(=S)N(CCc2c(C)[nH]c3ccccc23)Cc2ccco2)c1          -0.26
7  Cc1ccc(/C=C(\C#N)C(=O)Nc2cccc3ncccc23)o1            102
8  COc1ccc(CN2CCCC(N3CCc4ccccc4C3)C2)c(O)c1 (stereo not given)          -3.09
9  CCN(CC(=O)Nc1cccc(S(=O)(=O)N2CCCCC2)c1)Cc1ccccc1           1.24
